Data origin, for the record: ChEMBL document CHEMBL1140659

- assay-remarks: Therapeutic index, ratio of CC50 for HEp2 to EC50 for RSV long A
- details: human, HEp2 cells; read-out: Ratio CC50/EC50
Label T when selectivity ratio is at or above 0.4; otherwise label F.

Study these solved cases before continuing.
Query: Is reported selectivity ratio greater than or equal to 0.4 here: CC(C)CCn1c(Cn2c(=O)n(C(C)C)c3ccccc32)nc2c(CO)cccc21
Result: T

Query: Is reported selectivity ratio greater than or equal to 0.4 here: CC(C)CCn1c(Cn2c(=O)n(C)c3ccccc32)nc2cc(-c3nnn(C)n3)ccc21
Result: F

Query: Is reported selectivity ratio greater than or equal to 0.4 here: CC(C)CCn1c(Cn2c(=O)n(C(C)C)c3ccccc32)nc2cccc(N=[N+]=[N-])c21
Result: T

Query: Is reported selectivity ratio greater than or equal to 0.4 here: C=Cc1ccc2c(c1)nc(Cn1c(=O)n(C(C)C)c3ccccc31)n2CCC(C)C
Result: T

Query: Is reported selectivity ratio greater than or equal to 0.4 here: CC(C)CCn1c(Cn2c(=O)n(C(C)C)c3ccccc32)nc2cc(CN)ccc21
Result: T

New cases:
Query: Is reported selectivity ratio greater than or equal to 0.4 here: COCc1cccc2c1nc(Cn1c(=O)n(C(C)C)c3ccccc31)n2CCC(C)C
Result: T

Query: Is reported selectivity ratio greater than or equal to 0.4 here: CC(C)CCn1c(Cn2c(=O)n(CC(=O)OC(C)(C)C)c3ccccc32)nc2cc(C(=N)N)ccc21
Result: T

Query: Is reported selectivity ratio greater than or equal to 0.4 here: CC(C)CCn1c(Cn2c(=O)n(C(C)C)c3ccccc32)nc2ccc(CN)cc21
Result: T

Query: Is reported selectivity ratio greater than or equal to 0.4 here: CC(C)CCn1c(Cn2c(=O)n(C(C)C)c3ccccc32)nc2cc(-c3nn[nH]n3)ccc21
Result: F

Query: Is reported selectivity ratio greater than or equal to 0.4 here: CC(C)CCn1c(Cn2c(=O)n(C(C)C)c3ccccc32)nc2c(CCN)cccc21
Result: T
